Each entry below carries its reported PBM binding z-score.
Tested on: PPARg:RXRa DBDmut IVT, anti-RXR (DBD mutation: RXRa K156A/R161A, NR concentration 270 nM, RXRa partner concentration 90 nM)
protocol notes: PBM binding z-score (relative to random genomic background probes); higher = stronger binding; sequences stand for … in GC…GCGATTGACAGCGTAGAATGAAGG

Example results:
- sequence: "CCTACTGGCCCATCAGGTCATTGATATCAACGTT"
  val: -0.199
- sequence: "CTCGAAACGTCGTGCTCAGGTGAGTATACCAAAC"
  val: -0.582
- sequence: "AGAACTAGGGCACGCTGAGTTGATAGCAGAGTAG"
  val: 8.03

// next item, PBM binding z-score requested
Record request: PBM binding z-score value, item TAGACTAGGTCATGGGCCAGTATACCACGCGAAC
5.98
